Biological target: Calmodulin-1 (Homo sapiens) (UniProt P0DP23)
Test: small molecules binding Ca-loaded calmodulin-1 – biochemical, small-molecule microarray, Cy5-labelled CALM1, plus calcium, artefact control for SMM control-protein annotation, profiling panel (AID 1112);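 note: score merges spot fluorescence with signal to noise from triplicate slides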
Details: Cy5-CALM1 binding fluorescence, higher = more signal
Class T: composite z-score at least 0.5. Class F: composite z-score below 0.5.

Task: Hello, I need to know if COC(=O)[C@H](Cc1ccc(O)cc1)N[C@@H](/C=C/C1CC1)[C@H](O)Cc1ccccc1 has measured composite z-score not below 0.5. Thanks!
Output: F

Task: Same read-out for COC(=O)[C@@]1(Cc2ccc(F)cc2)[C@H]2c3cc(C(=O)N(C)C)n(CCc4ccc(O)c(O)c4)c3C[C@H]2CN1C(=O)c1ccccc1 ?
Output: T

Task: Queued: COc1cc(CO)cc(I)c1O[C@H]1C=C(C(=O)NCCO)C[C@@H]2O[C@H]12
Output: T

Task: Same question for C=C(CCCC)/C(=C/C[C@H](OC(=O)c1ccncc1)c1ccc(OCCO)cc1)c1cnc2ccccc2c1 please.
Output: F

Task: Also check CCOc1cc(C(O)C2C=CC3C(=O)N(c4ccccc4)C(=O)C3N2Nc2ccccc2F)ccc1O (stereo not drawn)
Output: F

Task: Same read-out for COc1ccc(NN2C(C(O)c3ccc(I)cc3)C=CC3C(=O)N(C4CCCCC4)C(=O)C32)cc1 (stereo not drawn) ?
Output: T

Task: // query: COc1ccc([Si](C)(C)[C@H]2[C@H](CC(=O)N3Cc4ccccc4C[C@H]3CO)O[C@@]3(C(=O)N(C)c4c(Br)cc(C)cc43)[C@@H]2C)cc1
Output: F

Task: Also, CCCCCC1=C2CNC(CC(C)C)(C(=O)OC)C=C2C(C)C1=O (stereo not drawn) please.
Output: T

====

Test: viability profiling in RPMI8226 myeloma cells – cell-based, resazurin fluorescence, basal, 24 h, PK04 Diversity Set, profiling panel (AID 1180);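 note: RPMI8826 multiple myeloma cell line at 5000 cells per well; test concentration not given here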
Conditions: higher = more signal
Please respond with reported z-score for every item in the list.

Task: Item COCCOC(=O)N1C(=O)[C@@]2(c3cc(C#CCCO)ccc31)[C@H](c1ccc(OCCO)cc1)N1[C@H](c3ccccc3)[C@H](c3ccccc3)OC(=O)[C@H]1[C@@H]2C(=O)N1CCCCCCC1 has what recorded z-score?
Output: -0.621

Task: Param item: O=C(NCC(O)CO)[C@@]1(CCS(=O)(=O)c2ccccc2)N=C(c2ccc(OCCCO)cc2)O[C@H]1c1ccccc1 (stereo partly drawn)
Output: -0.195

Task: // same read-out, input: CCOC(=O)c1cn(C[C@H](Cc2ccccc2)NC(=O)N[C@H](CO)CCc2oc(C(C)=O)c(C(=O)OC)c2C(=O)OC)nn1
Output: -0.458

====

Experiment: JC-1 mitochondrial signal, unstimulated myeloma cells – cell-based, JC-1 fluorescence, RPMI8226, 24 h, 100 nL compound, profiling panel (AID 1169); note: test concentration not given here
Settings: JC-1 mitochondrial potential fluorescence, higher = more signal
Decide by z-score: equal to or exceeding -0.08 means 1 (yes), less means 0 (no).

Task: Would you say CC(C)(C)OC(=O)CC[C@@]1(C(=O)NCCN2CCOCC2)N=C(c2ccc(OCCCO)cc2)O[C@@H]1c1ccccc1CN=[N+]=[N-] shows z-score at minimum -0.08?
Output: 0 (no)

Task: Proceed to CCOC(=O)C1=CC[C@@H](c2ccc(OC)cc2)N(S(=O)(=O)c2ccc(C)cc2)[C@H]1c1ccc(C)cc1
Output: 1 (yes)

Task: Okay, and [N-]=[N+]=Nc1ccccc1[C@@H]1OC(c2ccc(OCCCO)cc2)=N[C@]1(Cc1ccccc1)C(=O)NCCN1CCOCC1 ?
Output: 0 (no)

Task: Cool, now COC(=O)[C@H](Cc1ccccc1)N1CC2=CCCC=C[C@@H]2[C@H]1[C@H](O)Cc1ccccc1
Output: 0 (no)

Task: Follow-up item: O=C1C[C@@](C(=O)NCc2ccccc2)(c2ccc([N+](=O)[O-])cc2)[C@@H](c2ccc(CO)cc2)N1C1CCCCC1
Output: 0 (no)

Task: Same lookup for C=C(COC)C(=O)CC[C@@H](OC(C)=O)c1ccccc1OCCO , please.
Output: 0 (no)

Task: Item: C=CC1c2cc(O)c(OC)cc2CCN1C (stereo unspecified)
Output: 1 (yes)

Task: Consider next the molecule CC(C)C[C@@H]1NC(=O)[C@@]23C(=O)N[C@@H](Cc4ccccc4)C2[C@H](C)[C@@]2(C)O[C@H]2C3/C=C/C/C=C\CNC(=O)CNC1=O (stereo partly specified) in the same way.
Output: 1 (yes)

Task: Can you handle COc1cc(CO)cc(I)c1O[C@H]1C=C(C(=O)NCCO)C[C@@H]2O[C@H]12 next?
Output: 0 (no)

Task: Entry CC(C)(C)N1CC=CC23O[C@@H]4C=CCOC(=O)[C@@H]4[C@H]2C(=O)N(CCO)[C@@H]3C1=O (stereo partly specified) please
Output: 1 (yes)

Task: Another: C=CCOC(=O)[C@@H]1[C@H]2C(=O)O[C@H](c3ccccc3)[C@H](c3ccccc3)N2[C@H](c2ccc(OCCOC(=O)[C@H]3C[C@H]4C(=O)NCC(=O)N4[C@H]3c3cccc(OCCO)c3)cc2)[C@@]12C(=O)Nc1ccc(I)cc12
Output: 0 (no)

Task: CCOc1cc(C(O)C2C=CC3C(=O)N(c4ccccc4)C(=O)C3N2Nc2ccccc2F)ccc1O (stereo unspecified) , same question.
Output: 0 (no)

Task: Also, CC(=O)OCC1C2CC[C@H]3C(OCc4ccc(F)cc4C(F)(F)F)OC[C@]4(C)[C@H]3C2=C(CN4C(=O)OC(C)(C)C)[C@H](C)C1COC(C)=O (stereo partly specified) please.
Output: 0 (no)

Task: Moving on to O=C1C[C@@](C(=O)NC2CC2)(c2ccc([N+](=O)[O-])cc2)[C@@H](c2ccc(CO)cc2)N1C1CCCCC1
Output: 1 (yes)

Task: And the next one, O=C1C[C@@](C(=O)O)(c2ccc([N+](=O)[O-])cc2)[C@@H](c2ccc(CO)cc2)N1C1CCCCC1 ?
Output: 0 (no)

Task: Please do the same for CCCNC(=O)[C@@]1(Sc2ccc(C)cc2)CC(=O)N(Cc2ccccc2Cl)[C@@H]1c1ccc(CO)cc1I as well.
Output: 0 (no)

Task: Quick one: CN1C(=O)C2C=CC(C(O)c3ccc(-c4ccccc4)s3)N(NC(=O)OC(C)(C)C)C2C1=O (stereo unspecified)
Output: 1 (yes)

Task: Also, C=CC[C@@]12N=C(c3ccc(OCCCO)cc3)O[C@@H]1c1ccccc1N(CCC)C2=O please.
Output: 0 (no)

Task: Note, next up: [N-]=[N+]=Nc1ccccc1C[C@@]1(C(=O)NCC(O)CO)N=C(c2ccc(OCCCO)cc2)O[C@@H]1c1ccccc1 (stereo partly specified)
Output: 0 (no)

Task: Proceed to COc1ccc([Si](C)(C)[C@@H]2[C@@H](CC(=O)N3CCC[C@H]3CO)O[C@]3(C(=O)N(Cc4cccc(N5CCCCC5=O)c4)c4ccccc43)[C@H]2C)cc1
Output: 0 (no)

Task: Please give the result for COCCCNC(=O)[C@@H]1c2ccccc2C(=O)N(Cc2ccc(OC(F)(F)F)cc2)[C@H]1c1ccc(CO)cc1 too.
Output: 0 (no)

Task: What do you have for O=C1NC(=O)C2C1C=CC(C(O)c1ccc([N+](=O)[O-])cc1)N2Nc1ccccn1 (stereo unspecified) ?
Output: 0 (no)

Task: Would you kindly repeat that for Cc1ccc(C(C)CC(O)C2C=CC3C(=O)N(C)C(=O)C3N2Nc2ccccc2)o1 (stereo unspecified) ?
Output: 1 (yes)

Task: Could you do the same for CCOC(=O)C1=C[C@@H](C(C)(C)C)N(S(=O)(=O)c2ccc(C)cc2)[C@H]1c1ccc(C#N)cc1 , please?
Output: 0 (no)

Task: Follow-up entry: CC(C)(C)N1CC=CC23O[C@@H]4C=CCCOC(=O)C4[C@H]2C(=O)N(CCCCCCO)[C@@H]3C1=O (stereo partly specified)
Output: 1 (yes)

Task: What about C=C(CCCC)/C(=C/C[C@@H](OC(C)=O)c1ccc(CO)o1)c1cnc2ccccc2c1 ?
Output: 0 (no)

Task: Follow-up entry: CC(C)NC(=O)[C@@H]1c2ccccc2C(=O)N(Cc2ccc(OC(F)(F)F)cc2)[C@H]1c1ccc(CO)cc1
Output: 1 (yes)

Task: Please answer likewise for COC(=O)[C@@]1(Cc2ccc(OC)cc2)[C@H]2c3cc(C(=O)N4CCCC4)n(Cc4c(CO)[nH]cc(C)c4=O)c3C[C@H]2CN1C(=O)c1ccccc1
Output: 1 (yes)

Task: Same lookup for C=C(CCCC)/C(=C/C[C@H](OC(=O)c1ccncc1)c1ccccc1OCCO)c1cc(C(=O)OC)ccc1OC , please.
Output: 0 (no)

Task: What do we get for C=CCC(OC(C)=O)[C@@H]1[C@@H](N(Cc2cccc3ccccc23)C(=O)Cc2ccc(OC)cc2)c2cc(OCCCO)ccc2N1C(=O)Cc1ccc2ccccc2c1 (stereo partly specified) ?
Output: 0 (no)

The values you see were collected from PubChem BioAssay.
